Experiment: method code SF-HPLC, from DOI: 10.1016/s0928-0987(01)00163-4, PMID: 11500258
Settings: pH 7.4
MEASURED_QUANTITY: logD
One number for each entry.

The following molecules have reported results that may help.
| MOLECULE | REPORTED_VALUE |
| --- | --- |
| O=C(Cc1ccccc1Nc1c(Cl)cccc1Cl)OCCOCCOCCOCCO | 3.5 |
| COc1ccc2cc(C(C)C(=O)OCCOCCOCCOCCO)ccc2c1 (stereo not drawn) | 3.5 |
| O=C(Cc1ccccc1Nc1c(Cl)cccc1Cl)OCCOCCOCCO | 3.9 |

State recorded logD for all listed molecules.
1. COc1ccc2cc(C(C)C(=O)OCCOCCOCCOCCOCCO)ccc2c1 (stereo not drawn)
2. COc1ccc2cc(C(C)C(=O)OCCOCCOCCO)ccc2c1 (stereo not drawn)
3. O=C(Cc1ccccc1Nc1c(Cl)cccc1Cl)OCCOCCOCCOCCOCCOCCO
4. CC(C(=O)OCCOCCOCCOCCOCCOCCO)c1cccc(C(=O)c2ccccc2)c1 (stereo not drawn)

(A)
3.2
3.7
2.6
3.5

State recorded logD for all listed molecules.
1. CC(C(=O)OCCOCCO)c1cccc(C(=O)c2ccccc2)c1 (stereo not drawn)
2. COc1ccc2cc(C(C)C(=O)OCCOCCOCCOCCOCCOCCO)ccc2c1 (stereo not drawn)
3. CC(C(=O)OCCOCCOCCO)c1cccc(C(=O)c2ccccc2)c1 (stereo not drawn)
4. O=C(Cc1ccccc1Nc1c(Cl)cccc1Cl)OCCOCCO
5. CC(C(=O)OCCOCCOCCOCCOCCO)c1cccc(C(=O)c2ccccc2)c1 (stereo not drawn)
6. CC(C(=O)OCCOCCOCCOCCO)c1cccc(C(=O)c2ccccc2)c1 (stereo not drawn)

(A)
1: 3.6; 2: 2.9; 3: 3.4; 4: 4.1; 5: 3.9; 6: 3.6
